These data points were gathered from patent US20180016327A1.

testTarget: T1, human C5 (human, UniProt P01031 19-673; P01031 678-1676, Beta and alpha chains are disulfide-linked and the protein is glycosylated.)
T1 construct: Either in-house recombinant C5 or plasma derived C5 (CALBIOCHEM) was used; also called recombinant human C5; plasma derived human C5
testProtocol: Biacore, captured antibody, pH 7.4, 37 C;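 further: biacore binding response of anti-C5 antibody light chain variants captured on chip with human C5 injected, ACES running buffer containing 1.2 mM CaCl₂, parent light chain antibody set to 100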
I'd appreciate it if you could supply % binding (parent = 100) values for the items below.
Numbers only here, please. The scale is %.

Lookup: Recorded % binding (parent = 100) for CFP0021 21L 93D (antibody, V domains shown) VH: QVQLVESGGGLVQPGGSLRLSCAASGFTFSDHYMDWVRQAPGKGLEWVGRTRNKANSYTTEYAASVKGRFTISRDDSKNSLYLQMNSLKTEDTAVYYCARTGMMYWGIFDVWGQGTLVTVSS VL: DIQMTQSPSSLSASVGDRVTITCRASQSIEDDLAWYQQKPGKAPKLLIYHASTLQSGVPSRFSGSGSGTDFTLTISSLQPEDFATYYCQQHDDYPLTFGQGTKVEIK , please?
Found: 22.2

Lookup: Recorded % binding (parent = 100) for CFP0015 15L 31S (antibody, V domains shown) VH: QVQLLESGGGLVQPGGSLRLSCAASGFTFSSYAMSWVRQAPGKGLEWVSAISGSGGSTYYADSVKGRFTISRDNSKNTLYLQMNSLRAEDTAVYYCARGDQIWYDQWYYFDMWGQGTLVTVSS VL: DIQMTQSPSSLSASVGDRVTITCRASQSIESDLAWYQQKPGKAPKLLIYEASNLQSGVPSRFSGSGSGTDFTLTISSLQPEDFATYYCQQYDSSPLTFGQGTKVEIK , please?
Found: 36.5

Lookup: Recorded % binding (parent = 100) for CFP0018 18L 30N (antibody, V domains shown) VH: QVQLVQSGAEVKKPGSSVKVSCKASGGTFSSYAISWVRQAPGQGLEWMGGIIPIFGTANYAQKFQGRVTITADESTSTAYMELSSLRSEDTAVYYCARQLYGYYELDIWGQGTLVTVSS VL: DIQMTQSPSSLSASVGDRVTITCRASQSINDDLAWYQQKPGKAPKLLIYEASSLQSGVPSRFSGSGSGTDFTLTISSLQPEDFATYYCQQYNSYPLTFGQGTKVEIK , please?
Found: 201

Lookup: Recorded % binding (parent = 100) for CFP0021 21L 96F (antibody, V domains shown) VH: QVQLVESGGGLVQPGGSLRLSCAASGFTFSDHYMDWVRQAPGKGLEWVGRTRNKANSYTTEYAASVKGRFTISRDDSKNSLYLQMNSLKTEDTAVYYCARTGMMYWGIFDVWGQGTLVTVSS VL: DIQMTQSPSSLSASVGDRVTITCRASQSIEDDLAWYQQKPGKAPKLLIYHASTLQSGVPSRFSGSGSGTDFTLTISSLQPEDFATYYCQQHDSYPFTFGQGTKVEIK , please?
Found: 39.9

Lookup: Recorded % binding (parent = 100) for CFP0015 15L 91S (antibody, V domains shown) VH: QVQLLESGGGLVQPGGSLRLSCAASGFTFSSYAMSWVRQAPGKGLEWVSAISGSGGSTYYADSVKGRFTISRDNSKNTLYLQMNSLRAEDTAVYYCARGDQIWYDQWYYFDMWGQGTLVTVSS VL: DIQMTQSPSSLSASVGDRVTITCRASQSIEDDLAWYQQKPGKAPKLLIYEASNLQSGVPSRFSGSGSGTDFTLTISSLQPEDFATYYCQQSDSSPLTFGQGTKVEIK , please?
Found: 27.3
